# System: HEK293T cells transiently transfected with empty, wildtype, R183Q, or Q209L constructs
# procedure.details: MTT assay dose response curve for puromycin, 24 well plate, transiently transfected cells
# Assay type: cell-based
# particulars: Homo sapiens, HEK-293T, 72 h, wildtype GNAQ construct, puromycin 3 days, read-out: Half maximal inhibitory concentration (IC50), cell number
quantity: IC50
Please answer in the form of a number followed by its unit of measurement.

[ask] // lookup IC50 for COc1ccc(C[C@H](N)C(=O)N[C@H]2[C@@H](O)[C@H](n3cnc4c(N(C)C)ncnc43)O[C@@H]2CO)cc1 [puromycin]
[reply] 0.29 µM

These data points were gathered from patent US11452737B2.
